Origin of values: patent US20190263905A1

# Experimental system: T1, CEACAM1 antigen (Sino Biological, Inc.) (UniProt P13688 35-428)
# T1 construct: Bought antigen coated on the ELISA plate; construct not described; also called CEACAM1 (CD66a) antigen; CD66a
# T1 sequence (looked up): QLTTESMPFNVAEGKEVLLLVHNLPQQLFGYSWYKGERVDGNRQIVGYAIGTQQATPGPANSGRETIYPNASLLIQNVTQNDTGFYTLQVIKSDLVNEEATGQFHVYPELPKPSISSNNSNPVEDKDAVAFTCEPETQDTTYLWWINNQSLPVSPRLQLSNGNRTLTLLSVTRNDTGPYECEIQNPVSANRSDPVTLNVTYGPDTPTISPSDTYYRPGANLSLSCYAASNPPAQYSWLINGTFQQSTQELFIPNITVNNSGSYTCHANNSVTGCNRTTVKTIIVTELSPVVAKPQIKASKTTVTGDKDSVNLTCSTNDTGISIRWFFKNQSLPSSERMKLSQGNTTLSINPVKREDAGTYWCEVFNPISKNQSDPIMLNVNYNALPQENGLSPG
# Measurement protocol: ELISA, coated CEACAM1 100 ng/well, antibody 41.15 ng/ml
Examples of binders with documented OD 450 nm follow.
// units = OD; emit number, no label

>  <Binder>
recombinant humanized anti-CD66c antibody Protein ID 3007 (Vk7 + VH6) (antibody, human IgG1, V domains shown, also called hu 3007; #43) VH: QVQLVQSGAEVKKPGASMKISCKASGYSFTDYTMNWVKQAPGQNLEWIGLINPFHGGTVSNQRFKVKATLTVDVSTNTAYMELSRLRSDDTAVYYCVRGDPVRHYYALAYWGQGTLVTVSS VL: DIQMTQSPSTLSASVGDRVTITCGASENVYGTLNWYQRKPGKAPKLLIYGATNLADGVPSRFSGSGSGTEYTLTISSLQPDDFATYYCQNVLSAPYTFGGGTKLEIK

>  <Measured attribute>
OD 450 nm

>  <Result value>
0.66

$$$$

The reported OD 450 nm of the binder recombinant humanized anti-CD66c antibody Protein ID 3043 (Vk8 + VH6) (antibody, human IgG1, V domains shown, also called hu 3043; #71) VH: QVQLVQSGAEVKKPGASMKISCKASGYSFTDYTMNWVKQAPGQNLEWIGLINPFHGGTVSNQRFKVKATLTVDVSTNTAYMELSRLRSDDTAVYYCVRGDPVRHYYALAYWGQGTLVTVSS VL: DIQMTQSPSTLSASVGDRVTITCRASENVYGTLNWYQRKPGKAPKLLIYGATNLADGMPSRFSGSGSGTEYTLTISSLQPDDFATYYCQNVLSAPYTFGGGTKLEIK was 0.61
